Value source: patent US20170362301A1

biological target: EGFR (form in the assay not stated) (human, UniProt P00533 25-645, limits assumed); test: ELISA, NEM conjugate 500 nM
Entries and their binding ratio vs parent P54AR4-83v2
# value in ratio; strip the unit string

What measured binding ratio vs parent P54AR4-83v2 goes with P54AR4-83v2 R18C, NEM conjugate (designed binder, NEM on Cys 18, His-tagged) LPAPKNLVVSEVTEDSACLSWDDPWAFYESFLIQYQESEKVGEAIVLTVPGSERSYDLTGLKPGTEYTVSIYGVHNVYKDTNMRGLPLSAIFTT ?
0.94

What measured binding ratio vs parent P54AR4-83v2 goes with P54AR4-83v2 Y28C, NEM conjugate (designed binder, NEM on Cys 28, His-tagged) LPAPKNLVVSEVTEDSARLSWDDPWAFCESFLIQYQESEKVGEAIVLTVPGSERSYDLTGLKPGTEYTVSIYGVHNVYKDTNMRGLPLSAIFTT ?
0.09

What measured binding ratio vs parent P54AR4-83v2 goes with P54AR4-83v2 K79C, NEM conjugate (designed binder, NEM on Cys 79, His-tagged) LPAPKNLVVSEVTEDSARLSWDDPWAFYESFLIQYQESEKVGEAIVLTVPGSERSYDLTGLKPGTEYTVSIYGVHNVYCDTNMRGLPLSAIFTT ?
0.93
